- MEASUREMENT TARGET: T1, human myostatin (mature, recombinant; R&D Systems) (human, UniProt O14793 267-375)
- T1 sequence: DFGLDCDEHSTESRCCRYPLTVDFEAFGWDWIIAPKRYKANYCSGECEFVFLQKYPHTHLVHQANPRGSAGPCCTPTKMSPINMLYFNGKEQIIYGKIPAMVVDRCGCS
- ASSAY PROTOCOL: cell-based or functional assay

BINDER	UNITS LABEL	ARE-luciferase IC50
3008_F01 (designed binder) MGVSDVPRDLEVVAATPTSLLISWSLPRQGLANYYRITYGETGGNSPVQEFTVPGRGVTATISGLKPGVDYTITVYAVTVTAAGVIIYKPISINYRTEIDKPSQHHHHHH	nM	0.08
3116_A07 (designed binder) MGVSDVPRDLEVVAATPTSLLISWDAPKGLARYYRITYGETGGNSPVQEFTVVGRGNTATISGLKPGVDYTITVYAVTIFRDGPVTWDPISINYRTEIDKPSQHHHHHH	nM	0.04
2524_D09 (designed binder) MGVSDVPRDLEVVAATPTSLLISWYLPYPAHMNYYRITYGETGGNSPVQEFTVPGRGLTATISGLKPGVDYTITVYAVTLTKSQILHHRPISINYRTEIDKPSQHHHHHH	nM	0.06
3007_C10 (designed binder) MGVSDVPRDLEVVAATPTSLLISWSLPSSGVAHYYRITYGETGGNSPVQEFTVPGRGVTATISGLKPGVDYTITVYAVTVTNTGVIIYKPISINYRTEIDKPSQHHHHHH	nM	0.03
